All values here come from PubChem BioAssay AID2289.

test-description: qHTS Assay for Modulators of miRNAs and/or Inhibitors of miR-21; note: potency is the fitted concentration of half-maximal effect; nearly all actives have a fitted effect of over 55% in size
condition-set: HeLa miR-21-FLuc reporter, luciferase luminescence, 48 h; actives lower the signal
Excerpt: MLSCN Grant: 1 R21 NS059478-01 Assay Provider: Qihong Huang, The Wistar Institute NCGC Assay Overview: MicroRNAs (miRNAs) are endogenously encoded small (~20-25 nucleotides), nonprotein-coding RNAs that are involved in post-transcriptional repression of target messenger RNAs (mRNAs) (Le and Hannon, 2004). […]
About 3,300 (0.97%) of roughly 340,000 compounds were called active. Another 9% or so got no clear call; they are omitted. Some of the results follow.
reported-endpoint: Potency

Look over these answered cases.
                                   compound  observed_measurement
0          COc1ccccc1/C=C/C=N/NC(=O)c1cccs1      3.69 µM (active)
1  COc1ccc(-c2nc(C#N)c(NCCc3ccccc3)o2)cc1OC      2.93 µM (active)
2  CC(=O)Nc1ccc(-c2nc3ccc(NC(C)=O)cc3o2)cc1      3.69 µM (active)
3       COc1ccc(-c2nnc3c4ccccc4c(C)nn23)cc1      8.26 µM (active)
4     c1ccc2c(c1)CCN(C1=Nc3cccc4cccc1c34)C2      18.5 µM (active)

Can you look up the measured Potency of `N/C(=N\OC(=O)c1ccco1)c1cccc(Br)c1` for me?
3.69 µM (active)

Same read-out for `N/C(=N\OC(=O)c1cccs1)c1cccc(Br)c1` ?
8.26 µM (active)

---

test-description: qHTS Assay for Modulators of miRNAs and/or Inhibitors of miR-21; note: potency is the fitted concentration of half-maximal effect; nearly all actives have a fitted effect of over 55% in size
condition-set: HeLa miR-21-FLuc reporter, luciferase luminescence, 48 h; actives lower the signal
Out of some 340,000 compounds screened, about 3,300 (0.97%) were called active. About 9% were inconclusive and are not listed. This is one part of the list.
reported-endpoint: Potency

Look over these answered cases.
>>> print(df.to_string())
                     structure_notation  observed_measurement
0   O=[N+]([O-])c1ccccc1/C=N/OCc1ccccc1      14.7 µM (active)
1  Nc1nc(Nc2ccc(Cl)cc2Cl)nc(C(F)(F)F)n1      6.56 µM (active)
2          COc1cc(C)ccc1OCCCOc1ccccc1Cl      6.56 µM (active)
3    COc1cccc(Nc2nc(N)nc(C(F)(F)F)n2)c1      18.5 µM (active)
4   Cc1ccc2nc(NC(=S)NC(=O)c3ccco3)sc2c1     0.736 µM (active)

Read the next record carefully.
Can you look up the measured Potency of `COc1ccccc1OCCCOc1ccc([N+](=O)[O-])cc1Cl` for me?
7.36 µM (active)

---

test-description: qHTS Assay for Modulators of miRNAs and/or Inhibitors of miR-21; note: potency is the fitted concentration of half-maximal effect; nearly all actives have a fitted effect of over 55% in size
condition-set: HeLa miR-21-FLuc reporter, luciferase luminescence, 48 h; actives lower the signal
The whole screen tested about 340,000 compounds, of which about 3,300 (0.97%) were called active. Another 9% or so got no clear call; they are omitted. The list shows a part of the results.
reported-endpoint: Potency

Can you look up the measured Potency of `COc1ccc(C(=O)/C=C/Nc2ccc(C)cn2)cc1OC` for me?
1.65 µM (active)
